system: A375; experiment: Growth inhibition assay (MTS/PMS) with DFMO, A375; type: cell-based; conditions: in the presence of DFMO (1-5 mM), 1 mM AG, 0.5 μM SPD, six days; repeat determinations; read-out: Cell Line EC50 A375
Quick reference for EC50 among some compounds
Endpoint label: EC50 (nM)

>>> experimental_value("NCCCNCCCCNCCCNC(=O)[C@@H](CCCCNCC1CCCCC1)NCC1CCCCC1")
2180
>>> experimental_value("CN(C)c1cccc2c(S(=O)(=O)NCCCC[C@H](N)C(=O)NCCCNCCCCNCCCN)cccc12")
405
>>> experimental_value("CCCCCCCC/C=C\\CCCCCCCC(=O)NCCCC[C@H](N)C(=O)NCCCNCCCCNCCCN")
76
